System: BT-549 breast
testProtocol: NCI tumour cell line growth inhibition, 48 h
Parameter TGI: see the listing below.

compound	TGI
N#CC1=C(/N=C/c2ccccc2)Oc2c(ccc3ccccc23)C1c1ccccc1 (stereo unspecified)	> 24.5 µM
N#CCN1CCn2c1nsc2=S	> 100 µM
Clc1cc(Cl)cc(N=C/C=C/Nc2cc(Cl)cc(Cl)c2)c1	> 100 µM
O=C(N/N=C/c1ccc([N+](=O)[O-])cc1)Nc1ccc(C(=O)O)cc1	> 100 µM
c1cc2nnc1SCCCSc1ccc(nn1)SCCCS2	> 100 µM
COc1ccc(OC)c(CNc2ccc(C(=O)O)cc2)c1	> 100 µM
NS(=O)(=O)c1nnc(NS(=O)(=O)C(F)(F)F)s1	> 100 µM
O=C1Cc2c([nH]c3ccc(Br)cc23)-c2cc(O)c(O)cc2N1	> 100 µM
COC(=O)C(CCSC)NC(=O)CNC(=O)CSc1nnc(COc2ccc(Cl)cc2)n1-c1ccccc1 (stereo unspecified)	30.6 µM
CC1(C)OCC([C@H]2O[C@@H](CC(=S)NCCCCCCCCCCCCNC(=S)C[C@H]3O[C@@H](C4COC(C)(C)O4)[C@H]4OC(C)(C)O[C@H]43)[C@H]3OC(C)(C)O[C@H]32)O1 (stereo partly specified)	> 100 µM
CCCCCCNC(=O)Oc1ccc(/C(=C(\C)c2ccc(Cl)cc2)c2ccc(OCCN3CCCCC3)cc2)cc1	8.12 µM
CC1OC(OC2C(O)CC(OC3C(O)CC(OC4CCC5(C)C(CCC6C5CC(O)C5(C)C(C7=CC(=O)OC7)CCC65O)C4)OC3C)OC2C)CC(O)C1O (stereo unspecified)	0.101 µM
C[N+]12C=CC=C1C(N1CCCC1)c1scc(-c3ccccc3)c12 (stereo unspecified)	> 100 µM
Cc1cccc2c3c(sc12)C(c1ccc(Cl)cc1)C(C#N)=C(N)O3 (stereo unspecified)	6.9 µM
CC(C)(Br)C(=O)C(Br)Br	9.13 µM
CC(=O)C1=CN=C2C(=O)N(c3ccccc3)N(C)C12C (stereo unspecified)	> 100 µM

====

System: XF 498 CNS
testProtocol: NCI tumour cell line growth inhibition, 48 h
quantityKind: TGI

>>> df
                                   compound  targetdesc  endpointresult
0  C=CNC(=O)NC(=O)CSc1nnc(-c2ccccc2NC(=O)C(F)(F)F)c(=O)[nH]1  XF 498 CNS        > 100 µM
1  CCOP1(=O)C=C(C)C(Cl)=C(C)C1 (stereo unspecified)  XF 498 CNS         75.2 µM
2  CCCCCCCCCCCCC(Br)C(=O)NCC(N)=O (stereo unspecified)  XF 498 CNS         3.83 µM
3  C/C=C/C#CC#C/C=C/C=C/C(O)CCO (stereo unspecified)  XF 498 CNS       > 23.1 µM
4  Nc1[nH]c(=O)nc2c1cnn2C1CCCCO1 (stereo unspecified)  XF 498 CNS        > 100 µM
5  NC(=O)c1csc(C2OC(COP(=O)(O)CP(=O)(O)OCC3OC(n4cnc5c(N)ncnc54)C(O)C3O)C(O)C2O)n1 (stereo unspecified)  XF 498 CNS        > 100 µM

====

Test system: OVCAR-4 ovarian
testProtocol: NCI tumour cell line growth inhibition, 48 h
This section presents compounds with their documented TGI values.
quantityKind: TGI

compound	quantityKind	endpointResult
c1ccc2oc(-c3ccc(-c4nc5ccccc5o4)c4c3CC4)nc2c1	TGI	> 100 µM
COC(=O)C1=C(OC(=O)/C(=C/c2ccc(Cl)cc2)c2ccc(Cl)cc2)C(C(=O)OC)[C@]2(O)[C@@H](C(=O)OC)[C@H]1C[C@@H](c1ccccc1)[C@@H]2C(=O)OC (stereo partly specified)	TGI	> 100 µM
O=c1[nH]nc(Cc2ccccc2)n1C1CCCC1	TGI	> 100 µM
C=C1CCC2[C@@H](CCC3[C@]2(C)CCC[C@]3(C)C(=O)OC)C1CC=O (stereo partly specified)	TGI	32 µM
COCCNC(=O)C1C(=O)C(=O)N(CCOC)C1=O (stereo unspecified)	TGI	> 100 µM
CCOC(=O)c1c(C)n(-c2ccc(Cl)cc2)c2c1cc(O)c1[nH]c3c(c12)CCCC3	TGI	> 100 µM
